Source listed as PubChem BioAssay.

Provide the reported composite z-score of each item.
- Test system: XIP peptide (Xip251-270)
- method-description: small-molecule binders of XIP peptide, primary screen, biochemical, small-molecule microarray, fluorescence 635/667 nm, 0.5 µg/mL protein (AID 1183)
- condition-parameters: small-molecule microarray binding, fluorescence 635 nm; higher = more signal
Give bare numbers.

The examples below pair each entry with its known result.
Challenge: Item under review: CCCCC(CC)C(O)C1C=CC2C(=O)N(c3ccccc3)C(=O)C2N1Nc1ccc([N+](=O)[O-])cc1 (stereo not drawn) . Reported composite z-score?
Response given: 0.624

Challenge: Looking for the measured composite z-score of COCCOC(=O)N1C(=O)[C@@]2(c3cc(C#Cc4ccc(OC)cc4)ccc31)[C@H](C(=O)N1CCCCCCC1)[C@H]1C(=O)O[C@H](c3ccccc3)[C@H](c3ccccc3)N1[C@@H]2c1ccc(O)cc1 , can you help?
Response given: 0.669

Challenge: Data request, read-out composite z-score, for C=CC1c2cc(O)c(OC)cc2CCN1Cc1sc2ccccc2c1Cl (stereo not drawn)
Response given: 0.618

Challenge: Which composite z-score value belongs to COc1ccc(C(O)C2C=CC3C(=O)N(Cc4ccccc4)C(=O)C3N2n2cnnc2)c2ccccc12 (stereo not drawn) ?
Response given: 0.537

Challenge: Looking for the measured composite z-score of COCCOC(=O)N1C(=O)[C@@]2(c3cc(C#Cc4ccc(OC)cc4)ccc31)[C@H](C(=O)NC[C@H](O)c1ccccc1)[C@H]1C(=O)O[C@H](c3ccccc3)[C@H](c3ccccc3)N1[C@@H]2c1ccc(O)cc1 , can you help?
Response given: 0.775

Challenge: So what's the measured composite z-score for this one? COc1cc(CO)cc(I)c1O[C@H]1C=C(C(=O)NCCO)C[C@@H](NCc2ccccc2F)[C@@H]1O
Response given: 0.481

Challenge: Looking for the measured composite z-score of CCOC(=O)[C@@H]1[C@@H]2C(=O)N(CC)C(=O)[C@@H]2C[C@@H]1Sc1ccccc1 , can you help?
Response given: 0.313

Challenge: Which composite z-score value is on record for CCOC(=O)C[C@H]1[C@H](OC(=O)Cc2ccc3c(c2)OCO3)[C@@H](NC(=O)C2CCCCC2)c2cc(OCCCO)ccc2N1C(=O)c1ccc2ccccc2n1 ?
Response given: 0.639

Challenge: Look up composite z-score for this molecule: COCCOC(=O)N1C(=O)[C@@]2(c3ccccc31)[C@H](c1ccc(OCCO)cc1)N1[C@H](c3ccccc3)[C@H](c3ccccc3)OC(=O)[C@H]1[C@@H]2C(=O)Nc1nc2ccccc2s1
Response given: 0.745

Challenge: // returns reported composite z-score for input Cc1ccc(F)cc1S(=O)(=O)N[C@@H]1CCN(Cc2ccc(OC(C)C)cc2)C1
Response given: -0.701

// for each molecule below, give its composite z-score
1. C=CCC(OC(C)=O)[C@@H]1[C@@H](N(Cc2ccc(-c3ccccc3)cc2)C(=O)c2cccc3ccccc23)c2cc(OCCCO)ccc2N1C(=O)Cc1ccc2ccccc2c1 (stereo partly drawn)
2. C=CCN1Cc2ccccc2C[C@@]2(N=C(c3ccc(OCCCO)cc3)O[C@H]2c2ccccc2)C1=O
3. Cc1ccc(S[C@]2(C(=O)NCC(F)(F)F)CC(=O)N(Cc3ccccc3)[C@@H]2c2ccc(CO)cc2)cc1

Response given:
[0.579, 0.691, 0.5]

Please give composite z-score, item by item, for the list that follows.
1. COC(=O)[C@@]1(Cc2ccc(F)cc2)[C@H]2c3cc(C(=O)N4CCCC4)n(CCF)c3C[C@H]2CN1C(=O)c1ccccc1
2. C=C(/C=C/CNS(=O)(=O)c1ccc(C)cc1)[C@H](O)[C@H]1CCCN1S(=O)(=O)c1ccccc1[N+](=O)[O-]
3. O=C(CS)NCCCCCCNC(=O)[C@H]1C[C@H]2C(=O)N[C@@H](Cc3ccccc3)C(=O)N2[C@H]1c1cccc(OCCO)c1
4. CCCC[C@@H]1C[C@H]1[C@@H](NC(=O)c1cccnc1)c1ccc(-c2ccccc2)cc1
5. C=CCOC(=O)[C@H]1[C@@H]2C(=O)O[C@@H](c3ccccc3)[C@@H](c3ccccc3)N2[C@@H](c2ccc(OCCOC(=O)[C@H]3C[C@H]4C(=O)N[C@@H](Cc5ccccc5)C(=O)N4[C@H]3c3cccc(OCCO)c3)cc2)[C@]12C(=O)Nc1ccc(I)cc12

Response given:
[-0.352, 0.729, 0.825, -0.0356, 0.464]
